# Test system: ALP in NHAC (normal human articular chondrocytes)
# Assay comment: Alkaline Phosphatase (ALP) activity assay: ALP staining and quantitation in NHACs (prevention of chondrocyte hypertrophy)
# Type: cell-based
# Particulars: Chondrocyte, 288 h, human IL-1 beta 10 ng/mL, 12 days, read-out: ALP in NHAC (% Efficacy)
# Protocol: The compounds of the present invention were evaluated in the Alkaline Phosphatase (ALP) activity assay to determine the ability of the compounds to prevent chondrocyte hypertrophy in normal human articular chondrocytes (NHACs). […] The staining was imaged by fluoresecent microscopy, using the 561 nm wavelength, and/or quantified by high content imaging with the ImageXpress Confocal (Molecular Devices, Sunnyvale, CA). […]
Property name: Emax (%)
Your answer should be a plain number; it is taken to be in %.

Use the examples below as a reference point.
| Compound | Emax (%) |
| --- | --- |
| Cc1ccc(NC(=O)[C@]23C[C@@]2(c2cn(C)nc2C(F)(F)F)[C@H]2O[C@@H]3C[C@@H]2O)cc1C(F)(F)F (racemic) | 45 |
| N#Cc1ccc(C(F)(F)F)cc1NC(=O)[C@]12C[C@@]1(c1cccc(C(F)(F)F)c1)[C@H]1O[C@@H]2C[C@@H]1O (racemic) | 76 |
| Cn1cc([C@@]23C[C@]2(C(=O)Nc2ccc(C(F)(F)F)cc2)[C@H]2C[C@H](O)[C@@H]3O2)c(C(F)(F)F)n1 (racemic) | 46 |
| O=C(Nc1cc(C(F)(F)F)cc(Cl)n1)[C@]12C[C@@]1(c1ccnc(F)c1)[C@H]1O[C@@H]2C[C@@H]1O (racemic) | 0 |
| O=C(Nc1cc(C(F)(F)F)ccn1)[C@]12C[C@@]1(c1cccc(C(F)(F)F)c1)[C@H]1O[C@@H]2C[C@@H]1O (racemic) | 36 |

Any idea what Emax came out for Cc1c(NC(=O)[C@]23C[C@@]2(c2ccnc(F)c2)[C@H]2O[C@@H]3C[C@@H]2O)cccc1C(F)(F)F (racemic) on ALP in NHAC (normal human articular chondrocytes)?
6

Which Emax is reported with ALP in NHAC (normal human articular chondrocytes) for this entry: O=C(Nc1cccc(C(F)(F)F)c1)[C@]12C[C@@]1(c1ccnc(F)c1)[C@H]1O[C@@H]2C[C@@H]1O (racemic) ?
32

Form field - read-out: Emax; system: ALP in NHAC (normal human articular chondrocytes); submitted item: COc1ccc(C(F)(F)F)cc1NC(=O)[C@]12C[C@@]1(c1cn(C)nc1C(F)(F)F)[C@H]1O[C@@H]2C[C@@H]1O (racemic)
26

Recorded Emax for O=C(Nc1cccc(C(F)(F)F)c1)[C@]12C[C@@]1(c1cccc(C(F)(F)F)c1)[C@H]1O[C@@H]2C[C@@H]1O (racemic) with ALP in NHAC (normal human articular chondrocytes), please?
54
